Biological target: NS5 N-terminal capping enzyme WT (dengue 2) (Dengue virus type 2, UniProt P29990 2492-2758)
Sequence (P29990 2492-2758): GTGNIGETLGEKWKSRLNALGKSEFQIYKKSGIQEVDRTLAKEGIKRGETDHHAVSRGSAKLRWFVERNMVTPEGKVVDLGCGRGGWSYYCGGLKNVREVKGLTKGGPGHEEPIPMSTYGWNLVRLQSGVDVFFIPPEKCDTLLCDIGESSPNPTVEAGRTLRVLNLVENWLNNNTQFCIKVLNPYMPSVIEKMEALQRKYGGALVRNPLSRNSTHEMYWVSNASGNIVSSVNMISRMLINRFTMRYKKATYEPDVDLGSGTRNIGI
Experiment: fluorescence polarization; mock control for GTP experiment
Conditions: protein: recombinant; tags: His; label: 3' FAM
endpoint-name: Kd (µM)
// note: answer is a bare numeric in µM

Kd for AGUAA (ssRNA, no 5' phosphate) [AGUAA-FAM] ?
3.5
